- System: S. aureus CJ200
- method: MIC, agar diffusion, S. aureus CJ200
- Assay type: cell-based
- test parameters: Staphylococcus aureus, read-out: in vitro activities MIC
- From the text: In vitro investigations have shown a relatively high potency of compounds of the invention against all bacteria including gram-positive and gram-negative strains (Staphylococci, Streptococci, Corynebacteriae, Mycobacteriae, Proteus, Propionibacterium, Pseudomonas, Neisseriae, E. coli) and fungal strains (Candida and Aspergillus). […] In addition, the studies of post-antibiotic effects point towards a strong bactericidal effect of the compounds of the invention. […]
readout kind: MIC (µg/mL)
Answers are plain numbers, in µg/mL.

Known MIC results, listed for orientation:
CC(=O)O[C@H]1C[C@@]2(C)C(CCC3[C@@]4(C)CC[C@@H](O)[C@@H](C)C4CC[C@@]32C)[C@@H]1[C@H](CCCC(C)C)C(=O)NCCCNCCCN (some centres unmarked)
4
CC(C)CCCC(C(=O)NCCCNCCCNCCCN)[C@@H]1CC[C@@]2(C)C1C[C@@H](O)C1[C@@]3(C)CC[C@@H](O)[C@@H](C)C3CC[C@@]12C (some centres unmarked)
1
CC(=O)O[C@H]1C[C@@]2(C)C(C[C@@H](O)C3[C@@]4(C)CC[C@@H](O)[C@@H](C)C4CC[C@@]32C)[C@@H]1[C@H](CCCC(C)C)C(=O)NCCCNCCCCNCCCN (some centres unmarked)
1
CC(C)CCCC(C(=O)NCCNCCCNCCN)[C@H]1CC[C@@]2(C)C1CCC1[C@@]3(C)CC[C@@H](O)[C@@H](C)C3CC[C@@]12C (some centres unmarked)
4

Shifting focus to the compound that follows.
Query: Data request, read-out MIC, for CC(=O)O[C@H]1C[C@@]2(C)C(C[C@@H](O)C3[C@@]4(C)CC[C@@H](OC(C)=O)[C@@H](C)C4CC[C@@]32C)[C@@H]1[C@H](CCCC(C)C)C(=O)NCCCNCCCNCCCN (some centres unmarked)
Reply: 4

====

Please provide measured MIC for the entries that follow.
- Test system: Propionibacterium acnes FN33
- method: MIC, agar diffusion, Propionibacterium acnes FN33
- Format: cell-based
- test parameters: Cutibacterium acnes, read-out: in vitro activities MIC
Numbers only, in µg/mL.

Please review the entries below; each comes with its answer.
CC(C)CCCC(C(=O)NCCCNCCCCNCCCN)[C@@H]1CC[C@@]2(C)C1C[C@@H](O)C1[C@@]3(C)CC[C@@H](O)[C@@H](C)C3CC[C@@]12C (some centres unmarked)
1
CC(=O)O[C@H]1C[C@@]2(C)C(C[C@@H](O)C3[C@@]4(C)CC[C@@H](OC(C)=O)[C@@H](C)C4CC[C@@]32C)[C@@H]1[C@H](CCCC(C)C)C(=O)NCCCNCCCNCCCN (some centres unmarked)
1
CC(=O)NC[C@H]1CN(c2ccc(N3CCOCC3)c(F)c2)C(=O)O1 [Linezolid, reference compound]
1
CC(=O)O[C@H]1C[C@@]2(C)C(CCC3[C@@]4(C)CC[C@@H](O)[C@@H](C)C4CC[C@@]32C)[C@@H]1[C@H](CCCC(C)C)C(=O)NCCCNCCCN (some centres unmarked)
4

Next compound, MIC to be filled in.
Query: // lookup MIC for CC(=O)O[C@H]1C[C@@]2(C)C(C[C@@H](O)C3[C@@]4(C)CC[C@@H](O)[C@@H](C)C4CC[C@@]32C)[C@@H]1[C@H](CCCC(C)C)C(=O)NCCCNCCCCNCCCN (some centres unmarked)
Reply: 1

====

- Tested on: S. aureus N6
- method: MIC, agar diffusion, S. aureus N6
- Assay type: cell-based
- test parameters: Staphylococcus aureus; S. aureus N6 (Fus. resistant); read-out: in vitro activities MIC
Please provide measured MIC for the entries that follow.
Give bare numbers, in µg/mL.

Sample answers from the record:
CC(=O)O[C@H]1C[C@@]2(C)[C@@H](C[C@@H](O)[C@H]3[C@@]4(C)CC[C@@H](O)[C@@H](C)[C@@H]4CC[C@@]32C)/C1=C(\CCC=C(C)C)C(=O)O
16
CC(=O)O[C@H]1C[C@@]2(C)C(C[C@@H](O)C3[C@@]4(C)CC[C@@H](O)[C@@H](C)C4CC[C@@]32C)[C@@H]1[C@H](CCCC(C)C)C(=O)NCCCCNCCCN (stereo partly shown)
16
CC(=O)O[C@H]1C[C@@]2(C)C(C[C@@H](O)C3[C@@]4(C)CC[C@@H](OC(C)=O)[C@@H](C)C4CC[C@@]32C)[C@@H]1[C@H](CCCC(C)C)C(=O)NCCCNCCCNCCCN (stereo partly shown)
4

Query: May I ask what MIC has been recorded for CC(=O)O[C@H]1C[C@@]2(C)C(CCC3[C@@]4(C)CC[C@@H](OS(=O)(=O)O)[C@@H](C)C4CC[C@@]32C)[C@@H]1[C@H](CCCC(C)C)C(=O)NCCCNCCCNCCCN (stereo partly shown) ?
Reply: 1

====

What MIC was measured for each of the following?
- Test system: S. aureus CJ234F
- method: MIC, agar diffusion, S. aureus CJ234F
- Format: cell-based
- test parameters: Staphylococcus aureus; S. aureus CJ234F (MRSA, Fus. resistant); read-out: in vitro activities MIC
Answers are plain numbers, in µg/mL.

Use these answered entries as a reference point.
CC(=O)O[C@H]1C[C@@]2(C)C(C[C@@H](O)C3[C@@]4(C)CC[C@@H](OC(C)=O)[C@@H](C)C4CC[C@@]32C)[C@@H]1[C@H](CCCC(C)C)C(=O)NCCCNCCCCNCCCN (stereo partly shown) [Compound 173]
4
CC(=O)O[C@H]1C[C@@]2(C)C(CCC3[C@@]4(C)CC[C@@H](O)[C@@H](C)C4CC[C@@]32C)[C@@H]1[C@H](CCCC(C)C)C(=O)NCCNCCCNCCN (stereo partly shown) [Compound 133]
4
CC(C)CCCC(C(=O)NCCCNCCCCNCCCN)[C@@H]1CC[C@@]2(C)C1C[C@@H](O)C1[C@@]3(C)CC[C@@H](O)[C@@H](C)C3CC[C@@]12C (stereo partly shown) [Compound 146]
1

Please give MIC for each item listed below.
1. CC(=O)O[C@H]1C[C@@]2(C)C(C[C@@H](O)C3[C@@]4(C)CC[C@@H](OC(C)=O)[C@@H](C)C4CC[C@@]32C)[C@@H]1[C@H](CCCC(C)C)C(=O)NCCCNCCCNCCCN (stereo partly shown) [Compound 172]
2. CC(=O)O[C@H]1C[C@@]2(C)C(CCC3[C@@]4(C)CC[C@@H](OS(=O)(=O)O)[C@@H](C)C4CC[C@@]32C)[C@@H]1[C@H](CCCC(C)C)C(=O)NCCCNCCCNCCCN (stereo partly shown) [Compound 180]
3. CC(=O)O[C@H]1C[C@@]2(C)C(CCC3[C@@]4(C)CC[C@@H](OS(=O)(=O)O)[C@@H](C)C4CC[C@@]32C)[C@@H]1[C@H](CCCC(C)C)C(=O)NCCCNCCCCNCCCN (stereo partly shown) [Compound 177]

Reply:
[4, 1, 1]

====

- System: S. aureus CJ234F
- method: MIC, agar diffusion, S. aureus CJ234F
- Format: cell-based
- test parameters: Staphylococcus aureus; S. aureus CJ234F (MRSA, Fus. resistant); read-out: in vitro activities MIC
readout kind: MIC (µg/mL)
Answers are plain numbers, in µg/mL.

Consider the reported MIC for these compounds:
CC(=O)O[C@H]1C[C@@]2(C)[C@@H](C[C@@H](O)[C@H]3[C@@]4(C)CC[C@@H](O)[C@@H](C)[C@@H]4CC[C@@]32C)/C1=C(\CCC=C(C)C)C(=O)O [FA, fusidic acid]
16
CC(C)CCCC(C(=O)NCCCCNCCCN)[C@H]1CC[C@@]2(C)C1CCC1[C@@]3(C)CC[C@@H](O)[C@@H](C)C3CC[C@@]12C (stereo partly drawn) [Compound 154]
4

Turning to the following compound.
Query: GET /values?readout=MIC&item= CC(=O)O[C@H]1C[C@@]2(C)C(CCC3[C@@]4(C)CC[C@@H](O)[C@@H](C)C4CC[C@@]32C)[C@@H]1[C@H](CCCC(C)C)C(=O)NCCCNCCCN (stereo partly drawn) [Compound 131]
Reply: 4

====

- System: S. aureus CJ247
- method: MIC, agar diffusion, S. aureus CJ247
- Type: cell-based
- test parameters: Staphylococcus aureus, read-out: in vitro activities MIC
So I've got a bunch of molecules here, and I need their MIC values.
One number for each entry, in µg/mL.

CC(=O)O[C@H]1C[C@@]2(C)C(C[C@@H](O)C3[C@@]4(C)CC[C@@H](O)[C@@H](C)C4CC[C@@]32C)[C@@H]1[C@H](CCCC(C)C)C(=O)NCCCNCCCCNCCCN (stereo partly shown)
1
CC(C)CCCC(C(=O)NCCCNCCCCNCCCN)[C@@H]1CC[C@@]2(C)C1C[C@@H](O)C1[C@@]3(C)CC[C@@H](O)[C@@H](C)C3CC[C@@]12C (stereo partly shown)
1
CC(=O)O[C@H]1C[C@@]2(C)C(CCC3[C@@]4(C)CC[C@@H](O)[C@@H](C)C4CC[C@@]32C)[C@@H]1[C@H](CCCC(C)C)C(=O)NCCNCCCNCCN (stereo partly shown)
4
CC(=O)O[C@H]1C[C@@]2(C)C(C[C@@H](O)C3[C@@]4(C)CC[C@@H](O)[C@@H](C)C4CC[C@@]32C)[C@@H]1[C@H](CCCC(C)C)C(=O)NCCCCNCCCNCCCCN (stereo partly shown)
4
CC(=O)O[C@H]1C[C@@]2(C)C(CCC3[C@@]4(C)CC[C@@H](OS(=O)(=O)O)[C@@H](C)C4CC[C@@]32C)[C@@H]1[C@H](CCCC(C)C)C(=O)NCCCNCCCCNCCCN (stereo partly shown)
1
CC(=O)O[C@H]1C[C@@]2(C)C(CCC3[C@@]4(C)CC[C@@H](O)[C@@H](C)C4CC[C@@]32C)[C@@H]1[C@H](CCCC(C)C)C(=O)NCCCNCCCN (stereo partly shown)
4
CC(C)CCCC(C(=O)NCCNCCCNCCN)[C@H]1CC[C@@]2(C)C1CCC1[C@@]3(C)CC[C@@H](O)[C@@H](C)C3CC[C@@]12C (stereo partly shown)
4
CC(=O)O[C@H]1C[C@@]2(C)C(C[C@@H](O)C3[C@@]4(C)CC[C@@H](O)[C@@H](C)C4CC[C@@]32C)[C@@H]1[C@H](CCCC(C)C)C(=O)NCCCCNCCCN (stereo partly shown)
4
CC(=O)O[C@H]1C[C@@]2(C)C(C[C@@H](O)C3[C@@]4(C)CC[C@@H](OC(C)=O)[C@@H](C)C4CC[C@@]32C)[C@@H]1[C@H](CCCC(C)C)C(=O)NCCCNCCCNCCCN (stereo partly shown)
4

Query molecule follows.
Query: For the molecule CC(=O)NC[C@H]1CN(c2ccc(N3CCOCC3)c(F)c2)C(=O)O1 [Linezolid, reference compound] , what MIC is on record?
Reply: 1
